Hello, the source for this data is patent US20210253718A1, in case you need it.

Each record here notes measured median fluorescence.
system: FZD1 cysteine-rich domain (CRD), MYC-tagged and GPI-anchored on CHO cells (human)
experimentNotes: flow cytometry, CHO-CRD cells;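 further: flow cytometry of Fab binding to CHO cells overexpressing a Frizzled CRD, with binding defined as median fluorescence over twice that of CHO cells lacking any Frizzled CRD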
The reply should be a number, written without any unit.

Recorded median fluorescence, per entry:
binder: Fab-2913 (Fab, V domains shown, Fab; also called Fv-2913) VH: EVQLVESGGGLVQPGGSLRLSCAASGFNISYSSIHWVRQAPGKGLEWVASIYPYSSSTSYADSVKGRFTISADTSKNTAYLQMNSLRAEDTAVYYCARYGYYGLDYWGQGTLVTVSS VL: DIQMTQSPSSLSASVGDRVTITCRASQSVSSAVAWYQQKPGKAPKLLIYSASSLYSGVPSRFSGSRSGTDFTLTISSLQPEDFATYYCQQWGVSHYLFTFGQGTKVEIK
median fluorescence: 17.5
--
binder: Fab-2933 (Fab, V domains shown, Fab; also called Fv-2933) VH: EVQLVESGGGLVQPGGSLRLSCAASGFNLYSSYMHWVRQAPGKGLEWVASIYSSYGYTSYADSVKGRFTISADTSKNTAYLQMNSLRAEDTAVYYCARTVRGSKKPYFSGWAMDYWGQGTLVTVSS VL: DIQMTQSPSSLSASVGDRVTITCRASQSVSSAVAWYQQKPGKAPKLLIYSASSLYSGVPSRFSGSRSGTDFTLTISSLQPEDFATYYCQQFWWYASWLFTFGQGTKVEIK
median fluorescence: 14.5
--
binder: Fab-2935 (Fab, V domains shown, Fab; also called Fv-2935) VH: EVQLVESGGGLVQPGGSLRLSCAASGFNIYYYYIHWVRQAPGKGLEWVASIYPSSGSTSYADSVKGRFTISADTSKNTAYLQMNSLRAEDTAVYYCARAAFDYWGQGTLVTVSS VL: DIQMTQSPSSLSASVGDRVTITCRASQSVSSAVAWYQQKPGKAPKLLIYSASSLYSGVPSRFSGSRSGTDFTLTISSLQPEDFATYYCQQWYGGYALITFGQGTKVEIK
median fluorescence: 4.07

May I ask what median fluorescence has been recorded for Fab-2924 (Fab, V domains shown, Fab; also called Fv-2924) VH: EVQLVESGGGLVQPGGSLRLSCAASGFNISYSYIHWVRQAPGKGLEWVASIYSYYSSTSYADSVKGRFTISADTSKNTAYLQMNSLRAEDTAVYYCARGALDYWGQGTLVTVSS VL: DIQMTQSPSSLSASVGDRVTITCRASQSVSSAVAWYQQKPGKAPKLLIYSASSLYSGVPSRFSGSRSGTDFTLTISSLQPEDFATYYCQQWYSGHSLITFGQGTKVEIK ? 6.26

Field entry: Fab-2906 (Fab, V domains shown, Fab; also called Fv-2906) VH: EVQLVESGGGLVQPGGSLRLSCAASGFNFSSSSIHWVRQAPGKGLEWVAYISSSYGYTYYADSVKGRFTISADTSKNTAYLQMNSLRAEDTAVYYCARTVRGSKKPYFSGWAMDYWGQGTLVTVSS VL: DIQMTQSPSSLSASVGDRVTITCRASQSVSSAVAWYQQKPGKAPKLLIYSASSLYSGVPSRFSGSRSGTDFTLTISSLQPEDFATYYCQQWSWGFLITFGQGTKVEIK 5.23
